# measurement_target: AR protein (Homo sapiens)
# Construct: host or cells: VCaP
# test_name: AR protein degradation in VCaP cells (Western blot)
# Assay type: cell-based
# test_parameters: 5 nM, 8h
Label Y when Degradation rate of AR protein in VCaP cells >= 70%; otherwise N.

Past entries and their recorded results:
molecule: COc1cc(O[C@H]2C(C)(C)[C@H](NC(=O)c3ccc(N4CCC(C)(CN5CCC6(CC5)COc5cc7c(cc56)n(C)c(=O)n7C5CCC(=O)NC5=O)CC4)cc3)C2(C)C)ccc1C#N (relative stereo)
measurement_target: AR protein (Homo sapiens)
category_label: Y
//
molecule: COc1cc(O[C@H]2C(C)(C)[C@H](NC(=O)c3ccc(N4CCC(F)(CN5CCC6(CCc7cc(F)c(C(=O)N[C@H]8CCC(=O)NC8=O)cc7O6)CC5)CC4)cc3)C2(C)C)ccc1C#N
measurement_target: AR protein (Homo sapiens)
category_label: N
//
molecule: COc1cc(O[C@H]2C(C)(C)[C@H](NC(=O)c3ccc(N4CCC(F)(CN5CC6(CCC7(CC6)COc6c7ccc7c6CN(C6CCC(=O)NC6=O)C7=O)C5)CC4)cc3)C2(C)C)ccc1C#N (relative stereo)
measurement_target: AR protein (Homo sapiens)
category_label: Y

Please check the record COc1cc(O[C@H]2C(C)(C)[C@H](NC(=O)c3ccc(N4CCC(CN5CCN(c6ccc(C(=O)N[C@H]7CCC(=O)NC7=O)c(F)c6)CC5)CC4)cc3)C2(C)C)ccc1C#N [ARV-766, reference compound] and state if its Degradation rate of AR protein in VCaP cells is at or above 70%.
Y

Now try COc1cc(O[C@H]2C(C)(C)[C@H](NC(=O)c3ccc(N4CCC(CN5CCC6(CC5)COc5c6ccc(C(=O)N[C@H]6CCC(=O)NC6=O)c5F)CC4)cc3)C2(C)C)ccc1C#N .
N

Now try COc1cc(O[C@H]2C(C)(C)[C@H](NC(=O)c3ccc(N4CCC(CN5CCC6(CCc7cc(F)c(C(=O)N[C@H]8CCC(=O)NC8=O)cc7O6)CC5)CC4)cc3)C2(C)C)ccc1C#N .
N

Now try COc1cc(O[C@H]2C(C)(C)[C@H](NC(=O)c3ccc(N4CCC(CN5CCC6(CCc7cc(F)c(C(=O)N[C@H]8CCC(=O)NC8=O)cc7O6)CC5)(OC)CC4)cc3)C2(C)C)ccc1C#N .
N

Now try COc1cc(O[C@H]2C(C)(C)[C@H](NC(=O)c3ccc(N4CCC(CN5CCC6(CC5)COc5c6ccc6c5n(C)c(=O)n6C5CCC(=O)NC5=O)CC4)nn3)C2(C)C)ccc1C#N (relative stereo) .
Y

----------
Degradation rate of ERα in MCF-7 cells (%) overview
# measurement_target: ERα (Homo sapiens, UniProt P03372)
# Sequence (P03372 whole entry): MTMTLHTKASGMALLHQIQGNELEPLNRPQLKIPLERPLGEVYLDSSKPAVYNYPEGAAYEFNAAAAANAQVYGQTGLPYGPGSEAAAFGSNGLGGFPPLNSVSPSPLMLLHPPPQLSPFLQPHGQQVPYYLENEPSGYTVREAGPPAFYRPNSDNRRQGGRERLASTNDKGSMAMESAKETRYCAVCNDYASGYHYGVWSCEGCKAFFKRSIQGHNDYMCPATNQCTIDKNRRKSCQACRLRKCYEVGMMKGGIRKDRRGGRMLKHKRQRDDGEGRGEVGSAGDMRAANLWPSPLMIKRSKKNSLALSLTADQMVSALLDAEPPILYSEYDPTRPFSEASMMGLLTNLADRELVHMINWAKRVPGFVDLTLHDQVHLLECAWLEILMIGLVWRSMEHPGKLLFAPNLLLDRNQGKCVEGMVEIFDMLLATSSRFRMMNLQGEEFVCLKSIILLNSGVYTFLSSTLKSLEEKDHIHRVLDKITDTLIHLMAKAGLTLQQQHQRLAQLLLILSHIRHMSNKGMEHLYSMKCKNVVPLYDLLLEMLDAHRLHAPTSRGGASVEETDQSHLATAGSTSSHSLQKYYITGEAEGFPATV
# test_name: ERα degradation in MCF-7 cells (Western blot)
# Assay type: cell-based
# Parameters: host or cells: MCF-7
# test_parameters: 10nM, 4 hours
I only need the number, in %, no unit after it.

Answered examples (4):
compound: Cn1c(=O)n(C2CCC(=O)NC2=O)c2cc3c(cc21)C1(CCN(C2CCN(c4ccc([C@@H]5c6ccc(O)cc6CC[C@@H]5c5ccccc5)cc4)CC2)CC1)CO3 (some centres unmarked) [ER-P-11]
test_value: -33

compound: CN(C(=O)CN1CCC2(CC1)CCC1(CC2)COc2c1ccc1c2CN(C2CCC(=O)NC2=O)C1=O)C1CCC2(CC1)CN(c1ccc([C@@H]3c4ccc(O)cc4CC[C@@H]3c3ccccc3)cc1)C2 (some centres unmarked) [ER-P-20]
test_value: 30

compound: Cn1c(=O)n(C2CCC(=O)NC2=O)c2cc3c(cc21)C1(CCN(CC2CCN(c4ccc([C@@H]5c6ccc(O)cc6CC[C@@H]5c5ccccc5)cc4)CC2)CC1)CO3 (some centres unmarked) [ER-P-24]
test_value: -39

compound: Cn1c(=O)n(C2CCC(=O)NC2=O)c2cc3c(cc21)C1(CCN(CC2CCC4(CC2)CCN(c2ccc([C@@H]5c6ccc(O)cc6CC[C@@H]5c5ccccc5)cc2)CC4)CC1)CO3 (some centres unmarked) [ER-P-62]
test_value: 39

Requested read-out: Degradation rate of ERα in MCF-7 cells (%). Entry: Cn1c(=O)n(C2CCC(=O)NC2=O)c2ccc3c(c21)OCC31CCN(CC2CCN(C(=O)C3CCN(c4ccc([C@@H]5c6ccc(O)cc6CC[C@@H]5c5ccccc5)cc4)CC3)CC2)CC1 (some centres unmarked) [ER-P-63]
56

----------
# measurement_target: AR protein (Homo sapiens, UniProt P10275, T878A)
# Construct: host or cells: LNCaP FGC
# Sequence (P10275 1-920 T878A): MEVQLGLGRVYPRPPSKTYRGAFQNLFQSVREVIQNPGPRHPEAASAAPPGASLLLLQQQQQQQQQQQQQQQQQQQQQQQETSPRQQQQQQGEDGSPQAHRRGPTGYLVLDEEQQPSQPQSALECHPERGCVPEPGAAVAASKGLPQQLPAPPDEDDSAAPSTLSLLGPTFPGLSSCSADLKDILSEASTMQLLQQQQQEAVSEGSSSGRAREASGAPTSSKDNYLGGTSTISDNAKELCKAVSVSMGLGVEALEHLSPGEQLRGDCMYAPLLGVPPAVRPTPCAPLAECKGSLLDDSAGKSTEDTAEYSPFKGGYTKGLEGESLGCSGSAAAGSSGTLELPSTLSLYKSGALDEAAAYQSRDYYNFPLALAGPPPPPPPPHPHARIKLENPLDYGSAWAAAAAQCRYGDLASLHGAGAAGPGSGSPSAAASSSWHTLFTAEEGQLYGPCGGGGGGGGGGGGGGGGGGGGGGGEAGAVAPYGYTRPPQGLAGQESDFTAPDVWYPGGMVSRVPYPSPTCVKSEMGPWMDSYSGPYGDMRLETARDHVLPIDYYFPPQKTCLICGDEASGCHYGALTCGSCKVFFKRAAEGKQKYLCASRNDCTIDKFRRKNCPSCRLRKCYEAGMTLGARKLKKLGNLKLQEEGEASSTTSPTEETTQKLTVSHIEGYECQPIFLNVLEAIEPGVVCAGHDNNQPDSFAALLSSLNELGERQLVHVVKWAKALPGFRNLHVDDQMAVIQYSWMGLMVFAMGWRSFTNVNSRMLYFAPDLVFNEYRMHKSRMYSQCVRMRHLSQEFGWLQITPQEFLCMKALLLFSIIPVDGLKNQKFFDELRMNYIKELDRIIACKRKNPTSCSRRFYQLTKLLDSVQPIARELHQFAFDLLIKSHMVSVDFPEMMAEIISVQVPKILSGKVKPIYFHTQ
# test_name: AR protein degradation in LNCaP cells (Western blot)
# Type: cell-based
# test_parameters: 100 nM, 8 hours
readout: Degradation of AR protein in LNCaP cells, 100 nM (%)
I only need the number, in %, no unit after it.

Answered examples (5):
compound: COc1cc(O[C@H]2C(C)(C)[C@H](NC(=O)c3ccc(N4CCC5(CC4)CC(N4CCC6(CC4)COc4cc7c(cc46)n(C)c(=O)n7C4CCC(=O)NC4=O)C5)cc3)C2(C)C)ccc1C#N (relative stereo)
test_value: 55

compound: COc1cc(O[C@H]2C(C)(C)[C@H](NC(=O)c3ccc(N4CCC(C)(CN5CCC6(CCc7cc(C(=O)N[C@H]8CCC(=O)NC8=O)c(F)cc7O6)CC5)CC4)nc3)C2(C)C)ccc1C#N
test_value: 62

compound: COc1cc(O[C@H]2C(C)(C)[C@H](NC(=O)c3ccc(N4CCC(C)(CN5CCC6(CC5)COc5c6ccc(C(=O)N[C@H]6CCC(=O)NC6=O)c5F)CC4)cc3)C2(C)C)ccc1C#N
test_value: 40

compound: C[C@H]1CC2(CCN(c3ccc(C(=O)N4CCC(CN5CCN6c7ccc(C(=O)N[C@H]8CCC(=O)NC8=O)cc7OC[C@@H]6C5)CC4)cc3)CC2)CN1c1ccc(C#N)c(Cl)c1
test_value: 79

compound: COc1cc(O[C@H]2C(C)(C)[C@H](NC(=O)c3ccc(N4CCC(CN5CCN6c7cc(F)c(C(=O)N[C@H]8CCC(=O)NC8=O)cc7OC[C@H]6C5)CC4)cc3)C2(C)C)ccc1C#N
test_value: 68

Requested read-out: Degradation of AR protein in LNCaP cells, 100 nM (%). Entry: COc1cc(O[C@H]2C(C)(C)[C@H](NC(=O)c3ccc(N4CCC(CN5CCN(c6ccc(C(=O)N[C@H]7CCC(=O)NC7=O)c(F)c6)CC5)CC4)cc3)C2(C)C)ccc1C#N [ARV-766, reference compound]
78

Now try COc1cc(O[C@H]2C(C)(C)[C@H](NC(=O)c3ccc(N4CCC(C)(CN5CCC6(CCc7cc(F)c(C(=O)N[C@H]8CCC(=O)NC8=O)cc7O6)CC5)CC4)cc3)C2(C)C)ccc1C#N .
0

Now try COc1cc(O[C@H]2C(C)(C)[C@H](NC(=O)c3ccc(N4CCC(CN5CCC6(CCc7cc(C(=O)N[C@H]8CCC(=O)NC8=O)c(F)cc7O6)CC5)(OC)CC4)cc3)C2(C)C)ccc1C#N .
70

Now try Cn1c(=O)n(C2CCC(=O)NC2=O)c2cc3c(cc21)C1(CCN(C2CC4(CCN(c5ccc(C(=O)N[C@H]6CC[C@H](Oc7ccc(C#N)c(Cl)c7)CC6)nn5)CC4)C2)CC1)CO3 (relative stereo) .
9

Now try COc1cc(O[C@H]2C(C)(C)[C@H](NC(=O)c3ccc(N4CCC(C)(CN5CCC6(CCc7cc(C(=O)N[C@H]8CCC(=O)NC8=O)c(F)cc7O6)CC5)CC4)cn3)C2(C)C)ccc1C#N .
35
